Ref: PubChem BioAssay AID1362

experiment: growth inhibition of WT strain, primary screen, mitochondrial fusion inhibitor project, WT and mutant strains, chemical genetic (AID 1362); conditions: mitochondrial fusion phenotypic screen, mutant strain inhibition; at 10 µM
Hit rate of the full screen: of about 190,000 compounds, about 4,000 (2.1%) were called active. The sample as a whole holds a higher share of actives than the screen did.
property: inhibition (%)
All answers are understood in %, so give the number only.

Some compounds with known inhibition results, for comparison:
>  <compound>
COc1ccccc1N1CCN(CC(=O)NCCc2ccc(S(N)(=O)=O)cc2)CC1

>  <inhibition (%)>
3.52

$$$$
>  <compound>
CCOC(=O)C1=C(CC)Nc2ccccc2N=C1N

>  <inhibition (%)>
-18.4

$$$$
>  <compound>
CCOC(=O)N1CCN(S(=O)(=O)c2cc(Br)cc3c2N(C(=O)C2CC2)CC3)CC1

>  <inhibition (%)>
4.16

$$$$
>  <compound>
O=C(CN(CC1CCCO1)C(=O)CNS(=O)(=O)c1ccc(F)cc1)NCc1ccco1 (stereo unspecified)

>  <inhibition (%)>
-1.9

$$$$
>  <compound>
CC1CN(/C=C/C(=O)C(F)(F)F)CC(C)O1 (stereo unspecified)

>  <inhibition (%)>
4.39

$$$$

stdin: Look up inhibition for this compound: O=C(O)CCC(=O)N(Cc1ccco1)c1nc(-c2ccccc2)cs1
stdout: 4.1

stdin: Another compound to check: CC(=O)Nc1cc(C(=O)O)ccc1S(=O)(=O)c1ccc(Cl)cc1
stdout: 41.8

====

Each entry below carries its reported inhibition.
assay: growth inhibition of WT strain, primary screen, mitochondrial fusion inhibitor project, WT and mutant strains, chemical genetic (AID 1362); conditions: mitochondrial fusion phenotypic screen, WT strain, growth inhibition; at 10 µM; stronger effect = higher value
The whole screen tested about 190,000 compounds, of which about 4,000 (2.1%) were called active. This is one part of a sample in which actives are shown more often than they occur.
Entry rule: numbers only, all in %.

stdin: So what's the measured inhibition for this one? CCN1CCN(CC(=O)c2cc(OC)c(OC)c(OC)c2)CC1
stdout: -2.06

stdin: Subsequent entry: COc1ccc(Nc2cc(C)nc(-n3nc(C)cc3C)n2)cc1
stdout: 76.8

stdin: Thanks! And CCCCn1c(=S)[nH]c2ccccc2c1=O ?
stdout: 4.59

stdin: Also check c1ccc(C2c3[nH]c4ccccc4c3CCN2Cc2cccn2-c2cccnc2)nc1 (centres undefined)
stdout: -2.92

stdin: Next molecule: O=C(c1ccc(CSc2ccccc2)cc1)N1CCCCCC1
stdout: 38.9

====

test: growth inhibition of WT strain, primary screen, mitochondrial fusion inhibitor project, WT and mutant strains, chemical genetic (AID 1362); conditions: mitochondrial fusion phenotypic screen, mutant strain inhibition; at 10 µM
The whole screen tested about 190,000 compounds, of which about 4,000 (2.1%) were called active. For the sample, actives were picked, then their nearest neighbours and some compounds at random.
property: inhibition (%)
Answer format: numeric, % implied, no suffix.

>  <molecule>
CN(C)c1ccnc2sc(C(=O)c3ccccc3)c(N)c12

>  <inhibition (%)>
22.2

$$$$
>  <molecule>
Clc1cccc(-c2nc(NCC3CCCO3)c3ccccc3n2)c1 (configuration not stated)

>  <inhibition (%)>
68.9

$$$$
>  <molecule>
CCSC1=NCCN1C(=O)c1ccc(S(=O)(=O)N(CC)CC)cc1

>  <inhibition (%)>
-5.04

$$$$

stdin: Requested field: inhibition. Item: c1ccc(-c2cc(N3CCCCC3)c3ccccc3n2)cc1
stdout: 49.1

stdin: Also need CCN(CC)S(=O)(=O)c1ccc(Cl)c(NC(=O)c2ccncc2)c1 , thanks.
stdout: -15.4

stdin: Entry to check: O=C(O)c1ccc(NC(=O)c2cccs2)cc1
stdout: 1.63

stdin: Repeat for the following molecule: Cc1ccnc(N2CCC(C(=O)NC3CCCCCC3)CC2)n1
stdout: -18.9

stdin: Next molecule up: O=[N+]([O-])c1ccc2c(c1)C(N1CCOCC1)/C(=C/C1(O)CCCCC1)O2 (configuration not stated)
stdout: 0.41

stdin: Next molecule: O=C(CSc1nnc(-c2cccs2)n1-c1ccccc1)N1CCN(C(=O)c2ccco2)CC1
stdout: -21.2

stdin: And what about the molecule COc1cc(/C=N/NC(=O)c2cc(C)n(-c3ccc(F)cc3)c2C)cc(OC)c1O ?
stdout: 1.64

====

assay: growth inhibition of WT strain, primary screen, mitochondrial fusion inhibitor project, WT and mutant strains, chemical genetic (AID 1362); conditions: mitochondrial fusion phenotypic screen, mutant strain inhibition; at 10 µM
Hit rate of the full screen: of about 190,000 compounds, about 4,000 (2.1%) were called active. Many of the other results were omitted from the sample, so actives are more common in it than they were.
property: inhibition (%)
Return type: number; implicit unit %.

Examples from the recorded data:
>  <compound>
CC(C)(CNCC(O)c1ccccc1)N1CCOCC1 (centres undefined)

>  <measurement.unit>
%

>  <inhibition>
5.08

$$$$
>  <compound>
COc1cc(/C=C/C(=O)OCC(=O)Nc2cccc(Oc3ccccc3)c2)ccc1O

>  <measurement.unit>
%

>  <inhibition>
29

$$$$
>  <compound>
COc1ccc(Br)cc1CN(C)CC(=O)Nc1cc([N+](=O)[O-])ccc1OC

>  <measurement.unit>
%

>  <inhibition>
14

$$$$

stdin: Recorded inhibition of CC(=O)N/N=C(\C)c1ccc(Br)cc1Br , please.
stdout: 10.1

====

test: growth inhibition of WT strain, primary screen, mitochondrial fusion inhibitor project, WT and mutant strains, chemical genetic (AID 1362); conditions: mitochondrial fusion phenotypic screen, mutant strain inhibition; at 10 µM
Screen size: about 190,000 compounds; about 4,000 (2.1%) were called active. For the sample, actives were picked, then their nearest neighbours and some compounds at random.
property: inhibition (%)
Use % as the unit, but write only the number.

>  <molecule>
CCC(=O)c1ccc(N2CCN(C(=O)c3cc([N+](=O)[O-])ccc3F)CC2)c(F)c1

>  <property>
inhibition

>  <recorded.number>
5.39

$$$$
>  <molecule>
CCOC(=O)C1(Cc2cccc(OC)c2)CCN(Cc2csc(C(C)=O)c2)CC1

>  <property>
inhibition

>  <recorded.number>
25

$$$$

stdin: Query: inhibition; subject: COc1ccc(Br)cc1/C=N/NC(=O)c1cccc(S(=O)(=O)N2CCOCC2)c1
stdout: -16.2

stdin: Moving on to Cc1ccc(NCc2n[nH]c(=S)n2-c2ccccc2)cc1Cl
stdout: 3.54

stdin: Param item: Cc1onc(-c2ccccc2)c1C(=O)NNC(=S)NC(=O)c1ccc(F)cc1
stdout: -24.2

stdin: For Cc1cc(OCCOc2cccc3cccnc23)c(C)cc1Cl then?
stdout: 20.4

stdin: Another molecule to check: CCc1cc(CNC(=O)CC2C(=O)NCCN2CC2CCCCC2)on1 (configuration not stated)
stdout: -2.22

stdin: Next up: O=C1COc2ccc(C(=O)COC(=O)C3CC(O)CN3S(=O)(=O)c3ccc(Cl)cc3)cc2N1 (configuration not stated)
stdout: 0.3

stdin: How about Cc1nn(-c2ccccc2)c2sc(C(=O)N(Cc3ccco3)C(C)C(=O)NC(C)(C)C)cc12 (configuration not stated) ?
stdout: 1.44

stdin: Next: CCC(C)(C)NC(=O)/C=C/c1cc(OC)c(OC)c(S(=O)(=O)N2CCc3ccccc32)c1
stdout: 8.01

stdin: Another molecule to look at: C/C(=N\NC(=S)NCc1ccccc1)C1CCCCC1
stdout: 53.3

====

experiment: growth inhibition of WT strain, primary screen, mitochondrial fusion inhibitor project, WT and mutant strains, chemical genetic (AID 1362); conditions: mitochondrial fusion phenotypic screen, WT strain, growth inhibition; at 10 µM
About 4,000 (2.1%) of roughly 190,000 compounds were called active. No stated cut-off is given here; in the data, active means inhibition above about 58%; inactive means the rest, inconclusive results apart; tested in S. cerevisiae. The full list was thinned out, with actives kept by preference.
A correct response names exactly one class from active, inactive

As a guide, the following entries are already answered.
>  <compound>
Cn1c(SCc2c(F)cccc2Cl)nnc1-c1cnccn1

>  <assigned.label>
inactive

$$$$
>  <compound>
COc1cc(/C=C/C(=O)OCC(=O)Nc2cccc(Oc3ccccc3)c2)ccc1O

>  <assigned.label>
active

$$$$
>  <compound>
COc1ccc(/C=C/C(=O)OCC(=O)Nc2cccc(Oc3ccccc3)c2)c(OC)c1

>  <assigned.label>
inactive

$$$$
>  <compound>
COc1cccc(NC(=O)COC(=O)CCOc2ccccc2OC)c1

>  <assigned.label>
inactive

$$$$
>  <compound>
NC1=NC2(CCCCC2)N(c2ccc(F)cc2F)C(N)=N1

>  <assigned.label>
inactive

$$$$
>  <compound>
O=C(CN1CCN(S(=O)(=O)c2ccc(Cl)s2)CC1)NCc1ccc(Cl)cc1

>  <assigned.label>
active

$$$$

Let's switch to this compound now.
stdin: Could you kindly confirm the outcome this assay logged for Clc1ccc(C2=CSC3=Nc4cccc5cccc(c45)N23)cc1 ?
stdout: active

====

test: growth inhibition of WT strain, primary screen, mitochondrial fusion inhibitor project, WT and mutant strains, chemical genetic (AID 1362); settings: mitochondrial fusion phenotypic screen, WT strain, growth inhibition; at 10 µM
The whole screen tested about 190,000 compounds, of which about 4,000 (2.1%) were called active. Rule as the data show it: active = inhibition above about 58%; inactive = the rest, inconclusive results apart; tested in S. cerevisiae. The sample holds actives, similar compounds and a random draw of the others, so the mix is not that of the screen.
API: response.call in active, inactive

>  <compound>
C=CCC(CC=C)(C(N)=O)c1ccccc1

>  <assigned.label>
inactive

$$$$

stdin: Called result for c1ccc2c(NCC3CCCO3)nc(-c3ccncc3)nc2c1 (stereo unspecified)
stdout: inactive

stdin: Try this compound too: Clc1cccc(N=C2NN=C(c3ccc4c(c3)OCCO4)CS2)c1
stdout: active

stdin: Entry to check: Fc1ccc(Cn2nnnc2C(c2cccs2)N2CCCCCC2)cc1 (stereo unspecified)
stdout: active

stdin: O=S1(=O)CC/C(=N\Nc2ccc(F)cc2)c2ccsc21 ?
stdout: inactive

stdin: Follow-up item: CCOc1cccc(OCCCOc2cccc3cccnc23)c1
stdout: active

stdin: And for Cc1cccc(N=C2NN=C(c3c[nH]c4ccccc34)CS2)c1 ?
stdout: inactive

stdin: Entry to check: Clc1cccc(-c2nc(NCC3CCCO3)c3ccccc3n2)c1 (stereo unspecified)
stdout: active

stdin: Let us now turn to CCC(C)(C)n1nnnc1C(c1cccs1)N1CCN(Cc2ccccc2)CC1 (stereo unspecified)
stdout: inactive

stdin: Same again, this time with CCCOc1ccc(C(=O)NCCc2ccccc2)cc1
stdout: inactive

stdin: Please answer likewise for CC(C)N1C(=S)SC(C)(C)C1n1oc(=O)n(-c2ccc(Cl)c(Cl)c2)c1=O (stereo unspecified)
stdout: active

stdin: Item: COCCNc1nc(-n2nc(C)cc2C)nc2sc3c(c12)CCCC3
stdout: inactive
